Assay: in vitro
Parameters: species or system HB2, HEK293
Conditions: human, ccd841 cells
// reported viability at 48 h, 10 µM for each item listed
Response body: numeric value in %, unit text excluded.

Field request: viability at 48 h, 10 µM | item: O=C(CCl)Nc1cc2c(cc1Cl)C(=O)c1ccccc1C2=O
58.4

Field request: viability at 48 h, 10 µM | item: C=CC(=O)NCC1(O)CCS(=O)(=O)CC1
104

Field request: viability at 48 h, 10 µM | item: O=C(CCl)Nc1nc2ccccc2s1
77.5

Field request: viability at 48 h, 10 µM | item: O=C(CCl)Nc1nc(-c2c[nH]c3ccccc23)cs1
65

Field request: viability at 48 h, 10 µM | item: COc1ccc(NC(=O)CCl)cc1Cl
29.3

Field request: viability at 48 h, 10 µM | item: O=C(CCl)NCC(F)(F)F
99.4

Field request: viability at 48 h, 10 µM | item: Cc1cccc(C(=O)NNC(=O)CCl)c1
80

Field request: viability at 48 h, 10 µM | item: C=CC(=O)Nc1cccc(Cl)c1
103

Field request: viability at 48 h, 10 µM | item: COC(=O)c1ccccc1N(C)C(=O)CCl
89.7

Field request: viability at 48 h, 10 µM | item: COC(=O)CNC(=O)CCl
86.7

Field request: viability at 48 h, 10 µM | item: Cl.O=C(CCl)Nc1ccc(Cl)cn1
96.4

----------
// reported BSA for each item listed
Target: BSA (Bos taurus, UniProt P02769)
Construct: gene ALB
Sequence (P02769 whole entry): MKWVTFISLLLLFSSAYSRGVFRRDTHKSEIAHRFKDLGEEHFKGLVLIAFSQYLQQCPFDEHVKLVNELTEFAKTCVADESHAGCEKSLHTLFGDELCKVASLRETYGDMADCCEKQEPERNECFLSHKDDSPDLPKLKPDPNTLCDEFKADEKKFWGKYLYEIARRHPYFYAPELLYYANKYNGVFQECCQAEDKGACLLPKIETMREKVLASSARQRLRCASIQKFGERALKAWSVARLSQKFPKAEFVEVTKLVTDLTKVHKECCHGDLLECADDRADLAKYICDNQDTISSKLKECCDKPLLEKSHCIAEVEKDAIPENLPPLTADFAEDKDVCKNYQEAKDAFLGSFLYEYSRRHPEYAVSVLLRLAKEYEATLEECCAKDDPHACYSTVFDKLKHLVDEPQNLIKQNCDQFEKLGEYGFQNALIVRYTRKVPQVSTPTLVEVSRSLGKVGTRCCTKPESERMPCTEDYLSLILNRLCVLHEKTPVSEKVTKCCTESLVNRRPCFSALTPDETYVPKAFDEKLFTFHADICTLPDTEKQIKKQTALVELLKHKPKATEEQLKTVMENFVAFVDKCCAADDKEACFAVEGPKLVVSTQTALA
Set-up: Intact protein LC/MS covalent labelling, fragments in pools of five, 200 uM each, 4 °C
Settings: 24 h, 4 °C, pool of five; 200 µM; covalent
Give your answer as a number; write no unit.

Please review the following examples before continuing.
C=CC(=O)N1C(C)CNCC1C.O=C(O)C(F)(F)F (stereo not drawn)
0
CC(NC(=O)CCl)C1CC2CCC1C2 (stereo not drawn)
0

Field: next compound
Query the reported BSA for BSA (Bos taurus, UniProt P02769); item: Cl.O=C(CCl)N1CCN(Cc2ccsc2)CC1
0

----------
Test: in vitro
Design: species or system HB2, CCD841
Details: human, hek293 cells
// reported viability at 48 h, 10 µM for each item listed
Write the quantity with the unit trailing the number.

Cc1ccccc1CN1CCN(C(=O)CCl)CC1.Cl [PCM-0102876]
38.1%
O=C(CCl)NNC(=O)c1ccc(F)cc1 [PCM-0102430]
93.4%

Field request: viability at 48 h, 10 µM | item: C=CC(=O)N1CC(OC(=O)Nc2cccc(F)c2)C1 [PCM-0102688]
95.8%

Field request: viability at 48 h, 10 µM | item: O=C(CCl)Nc1cc2c(cc1Cl)OCCO2 [PCM-0102585]
15%

Field request: viability at 48 h, 10 µM | item: C=CC(=O)NC1CNC(=O)C1 (stereo not shown) [PCM-0102882]
97.3%

Field request: viability at 48 h, 10 µM | item: COc1cc(=O)[nH]c(NC(=O)CCl)n1 [PCM-0102873]
114%

Field request: viability at 48 h, 10 µM | item: C=CC(=O)N1CCC(S(=O)(=O)N2CCCC2)C1 (stereo not shown) [PCM-0102701]
85.2%
